# SYSTEM_UNDER_TEST: human IL-23R (Homo sapiens, UniProt Q5VWK5)
# PROTOCOL_DETAILS: biochemical
*1 amine or outer side, *2 acyl side, *3 side chain or, on linkers, in order; H or OH if unused. Where a SMILES comes first, the peptide text is derived from it. Bridges are numbered along the chain shown (N, C = ends). [ ]: non-standard residue; d: D form. hAad = O=C([C@H](CCCCC(=O)[*:3])N[*:1])[*:2]; 2Nal = N[C@@H](Cc1ccc2ccccc2c1)C(=O)O; AEF = NCCOc1ccc(C[C@H](N)C(=O)O)cc1; 3Pal = N[C@@H](Cc1cccnc1)C(=O)O; αMeL = CC(C)C[C@](C)(N)C(=O)O; dDab = NCC[C@@H](N)C(=O)O; Dab = NCC[C@H](N)C(=O)O

{"columns": ["COMPOUND", "RESULT_UNITS", "% displacement (hIL-23R NIuc)"],
 "data": [
  ["CC[C@H](C)[C@@H]1NC(=O)[C@@H]2CCCCNC(=O)CC[C@@H](C(=O)NCC(=O)N[C@H](Cc3cccnc3)C(N)=O)NC(=O)[C@](C)(C(C)C)NC(=O)[C@H](Cc3ccc4ccccc4c3)NC(=O)[C@H](CC3CC3)NC(=O)[C@H](CCC(=O)N2)NC(=O)[C@H](CCC(N)=O)NC(=O)[C@H](Cc2c[nH]c3ccccc23)NC(=O)[C@H](C(C)C)NC1=O", "%", 108],
  ["CNC(=O)[C@H](Cc1cccnc1)NC(=O)[C@H](CCN)NC(=O)[C@@H]1CCC(=O)NCCCCC[C@@H]2NC(=O)CC[C@H](NC(=O)[C@H](CCC(N)=O)NC(=O)[C@H](Cc3c[nH]c4ccccc34)NC2=O)C(=O)N[C@@H](Cc2ccc(OCCN)cc2)C(=O)N[C@@H](Cc2ccc3ccccc3c2)C(=O)N[C@@](C)(CC(C)C)C(=O)N1", "%", 99],
  ["CC(C)C[C@]1(C)NC(=O)[C@H](Cc2ccc3ccccc3c2)NC(=O)[C@H](Cc2ccc(OCCN)cc2)NC(=O)[C@@H]2CC(=O)N[C@H](CCNC(=O)CCCC[C@@H](C(=O)N[C@@H](CCN)C(=O)N[C@@H](Cc3cccnc3)C(N)=O)NC1=O)C(=O)N[C@@H]([C@@H](C)O)C(=O)N[C@@H](C(C)C)C(=O)N[C@@H](Cc1c[nH]c3ccccc13)C(=O)N[C@@H](CCC(N)=O)C(=O)N2 [Compound 9] ([dDab]TVWQD[AEF][2Nal][αMeL][hAad][Dab][3Pal]-NH2; lactam 1-10, N-6)", "%", 103]
]}

###

# PROTOCOL_DETAILS: Peptide stability in simulated intestinal fluid (SIF)
# Type: in vitro ADME
# CONDITION: pig, 37 °C, porcine pancreatin, pH 6.8, 4 h, read-out: SIF (% remaining 4 h)
*1 amine or outer side, *2 acyl side, *3 side chain or, on linkers, in order; H or OH if unused. Where a SMILES comes first, the peptide text is derived from it. Bridges are numbered along the chain shown (N, C = ends). [ ]: non-standard residue; d: D form. 2Nal = N[C@@H](Cc1ccc2ccccc2c1)C(=O)O; AEF = NCCOc1ccc(C[C@H](N)C(=O)O)cc1; X1 = O=C(Cc1ccc(CN[*:1])cc1)[*:2]; αMeL = CC(C)C[C@](C)(N)C(=O)O; CH2COCH2 = O=C(C[*:1])C[*:2]; 3Amb = NCc1cccc(C(=O)O)c1; Dab = NCC[C@H](N)C(=O)O
Measured remaining at 4 h, 10 µM, listed per entry.
READOUT_NAME: remaining at 4 h, 10 µM (%)

{"columns": ["MOLECULE", "RESULT_UNITS", "READOUT_NUMBER"],
 "data": [
  ["CC(C)C[C@]1(C)NC(=O)[C@H](Cc2ccc3ccccc3c2)NC(=O)[C@H](Cc2ccc(OCCN)cc2)NC(=O)[C@@H]2CSCC(=O)CSC[C@H](NC(=O)[C@H](CO)NC(=O)Cc3ccc(cc3)CNC(=O)CC[C@@H](C(=O)N[C@@H](CCN)C(N)=O)NC1=O)C(=O)N[C@@H](Cc1c[nH]c3ccccc13)C(=O)N[C@@H](CCC(N)=O)C(=O)N2 [Ref 82, reference compound] ([X1]SCWQC[AEF][2Nal][αMeL]E[Dab]-NH2; linker 3-6 via CH2COCH2; lactam N-10)", "%", 77],
  ["CC(C)C[C@]1(C)NC(=O)[C@H](Cc2ccc3ccccc3c2)NC(=O)[C@H](Cc2ccc(OCCN)cc2)NC(=O)[C@@H]2CSCC(=O)CSC[C@H](NC(=O)[C@H](CO)NC(=O)c3cccc(c3)CNC(=O)CC[C@@H](C(=O)N[C@H](CCCNC(=N)N)C(N)=O)NC1=O)C(=O)N[C@@H](Cc1c[nH]c3ccccc13)C(=O)N[C@@H](CCC(N)=O)C(=O)N2 [Ref 41, reference compound] ([3Amb]SCWQC[AEF][2Nal][αMeL]E[dR]-NH2; linker 3-6 via CH2COCH2; lactam N-10)", "%", 79]
]}

###

# SYSTEM_UNDER_TEST: IL-23 mediated signalling (Homo sapiens, UniProt Q5VWK5)
# PROTOCOL_DETAILS: Functional inhibition of IL-23 mediated STAT3 signalling (phospho-STAT3 MSD) in DB cells
# Format: cell-based
*1 amine or outer side, *2 acyl side, *3 side chain or, on linkers, in order; H or OH if unused. Where a SMILES comes first, the peptide text is derived from it. Bridges are numbered along the chain shown (N, C = ends). [ ]: non-standard residue; d: D form. 2Nal = N[C@@H](Cc1ccc2ccccc2c1)C(=O)O; AEF = NCCOc1ccc(C[C@H](N)C(=O)O)cc1; 3Pal = N[C@@H](Cc1cccnc1)C(=O)O; αMeL = CC(C)C[C@](C)(N)C(=O)O; CH2COCH2 = O=C(C[*:1])C[*:2]; Dab = NCC[C@H](N)C(=O)O
READOUT_NAME: IC50 (nM)

{"columns": ["COMPOUND", "SYSTEM_UNDER_TEST", "RESULT_MODIFIER", "READOUT_NUMBER"],
 "data": [
  ["CC(=O)N[C@H]1CCCCNC(=O)CC[C@@H](C(=O)N[C@@H](CCN)C(=O)N[C@@H](Cc2cccnc2)C(N)=O)NC(=O)[C@](C)(CC(C)C)NC(=O)[C@H](Cc2ccc3ccccc3c2)NC(=O)[C@H](Cc2ccc(OCCN)cc2)NC(=O)[C@@H]2CSCC(=O)CSC[C@H](NC(=O)[C@H]([C@@H](C)O)NC1=O)C(=O)N[C@@H](Cc1c[nH]c3ccccc13)C(=O)N[C@@H](CCC(N)=O)C(=O)N2 [Ref 155, reference compound] (Ac-KTCWQC[AEF][2Nal][αMeL]E[Dab][3Pal]-NH2; lactam 1-10; linker 3-6 via CH2COCH2)", "IL-23 mediated signalling (Homo sapiens, UniProt Q5VWK5)", "=", 0.031],
  ["CC(C)C[C@@H]1NC(=O)[C@H](Cc2c[nH]c3ccccc23)NC(=O)[C@H](Cc2c[nH]c3ccccc23)NC(=O)[C@@H]2CSCC(=O)CSC[C@H](NC(=O)[C@H]([C@@H](C)O)NC(=O)[C@@H](NC(=O)CN)CSCC(=O)CSC[C@@H](C(=O)N[C@@H](CO)C(N)=O)NC1=O)C(=O)N[C@@H](Cc1c[nH]c3ccccc13)C(=O)N[C@@H](CCC(=O)O)C(=O)N2 (single isomer, unassigned) [I1 (isomer 3), H-GC(1a)TC(2a)WEC(2a)WWLC(1a)S-[NH2], reference compound]", "IL-23 mediated signalling (Homo sapiens, UniProt Q5VWK5)", ">", 1000],
  ["CC(C)C[C@]1(C)NC(=O)[C@H](Cc2ccc3ccccc3c2)NC(=O)[C@H](Cc2ccc(OCCN)cc2)NC(=O)[C@@H]2CCNC(=O)CC[C@H](NC(=O)[C@H](CO)NC(=O)Cc3ccc(cc3)CNC(=O)CC[C@@H](C(=O)N[C@@H](CCN)C(=O)N[C@@H](Cc3cccnc3)C(N)=O)NC1=O)C(=O)N[C@@H](Cc1c[nH]c3ccccc13)C(=O)N[C@@H](CCC(N)=O)C(=O)N2 [Ref 122, reference compound]", "IL-23 mediated signalling (Homo sapiens, UniProt Q5VWK5)", "=", 0.028]
]}

###

Target chain: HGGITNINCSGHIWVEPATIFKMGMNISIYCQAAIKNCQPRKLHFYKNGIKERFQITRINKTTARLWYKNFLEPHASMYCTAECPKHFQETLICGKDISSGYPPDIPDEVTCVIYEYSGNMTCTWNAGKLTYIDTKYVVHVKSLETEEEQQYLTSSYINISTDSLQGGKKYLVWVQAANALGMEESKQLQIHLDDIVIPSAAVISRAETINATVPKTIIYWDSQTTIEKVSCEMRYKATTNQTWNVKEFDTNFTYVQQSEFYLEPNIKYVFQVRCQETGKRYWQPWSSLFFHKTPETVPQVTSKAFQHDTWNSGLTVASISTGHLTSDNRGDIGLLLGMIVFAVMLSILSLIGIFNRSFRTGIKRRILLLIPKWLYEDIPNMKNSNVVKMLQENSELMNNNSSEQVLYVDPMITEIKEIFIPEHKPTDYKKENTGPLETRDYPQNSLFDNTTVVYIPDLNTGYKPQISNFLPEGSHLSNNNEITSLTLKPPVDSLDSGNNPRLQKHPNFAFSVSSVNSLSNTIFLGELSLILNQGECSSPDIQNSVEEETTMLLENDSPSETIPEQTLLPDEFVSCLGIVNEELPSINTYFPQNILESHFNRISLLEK
pIC50: −log10 of the molar value.

{"columns": ["MOL_SMILES", "pIC50"],
 "data": [
  ["CNC(=O)[C@H](Cc1cccnc1)NC(=O)[C@H](CCN)NC(=O)[C@@H]1CCC(=O)NCCCC[C@@H]2NC(=O)CCC[C@H](NC(=O)[C@H](CCC(N)=O)NC(=O)[C@H](Cc3c[nH]c4ccccc34)NC(=O)[C@H]([C@@H](C)O)NC2=O)C(=O)N[C@@H](Cc2ccc(OCCN)cc2)C(=O)N[C@@H](Cc2ccc3ccccc3c2)C(=O)N[C@@](C)(CC(C)C)C(=O)N1", 8.82],
  ["CC[C@H](C)[C@@H]1NC(=O)[C@@H]2CCCCNC(=O)CC[C@@H](C(=O)N[C@@H](CCN)C(=O)N[C@@H](Cc3cccnc3)C(=O)NC)NC(=O)[C@](C)(CC(C)C)NC(=O)[C@H](Cc3ccc4ccccc4c3)NC(=O)[C@H](Cc3ccc(OC)cc3)NC(=O)[C@H](CCC(=O)N2)NC(=O)[C@H](CCC(N)=O)NC(=O)[C@H](Cc2c[nH]c3ccccc23)NC(=O)[C@H](C(C)C)NC1=O", 9.96]
]}
